Test system: RARa:RXR (NR concentration 270 nM, RXRa partner concentration 90 nM)
Test: PBM binding z-score (relative to random genomic background probes); higher = stronger binding; sequences stand for … in GC…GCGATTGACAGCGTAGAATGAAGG
Rule: PBM binding z-score of 0.6 or more gives yes; anything lower gives no.

CCTTACGGGTCACTGACAGGTTATAGCCTTTGGA : yes
TCTTGTAAATCAAAGGTTAAGAAAGCCGAAGCCT : yes
GGTGCTAGGTCAGGTTGGTCAGCTAACGGGTACG : yes
CCTTACTGGTCAAGGTTATAGCACGGGTGGTACG : yes
TCTCGGAGGACACGAAGGTAAGAGCTTTCCAGAG : no
AATAGCAGGCCAAGTTTGGGTCACTCAAACAAAG : yes
CGTGCTAGGTCAATGGTCAGCTAAAGCAGCTCGC : yes
TAGCCTAGGTCATGCGGGCCAGTCTAGTGTCGGC : yes
CCTACTGGGCCAAGGTCATTGATCAGTCAAAGCA : yes
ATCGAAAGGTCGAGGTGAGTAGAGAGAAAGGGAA : yes
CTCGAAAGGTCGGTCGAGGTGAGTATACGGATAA : yes
TCTGCTAGGTAAGTTGGTCAGCTAACGAGCTGCC : no
CCGACTGGGGCAGAAAGGTTACCACACCATCCGG : yes
TCGAGTAGGTTACCAGTGGGGCATTCAGCTTTCT : no
TCTTGTAGATCAGCATGTTAAGAAAGCTGGCCAA : no
TCTAGTTCGTCAAAGGTCACACACTCGAAATGCG : yes
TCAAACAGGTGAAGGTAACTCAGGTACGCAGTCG : yes
GCTGCTAAGTCAACTGATGGTCAGCTAAAGCTCG : no
AGAATGAGGGCAATGAGTTGATAGCACGGGTGGC : no
AGTCAAAGCTCAGGACGAGGTAACGTAAAGCACG : no
ACTAGTTGGTCAGCTGAGGTCAGACACAATTCGG : yes
GCTGCTAGGTCAGGTTGGTCAGATAACGGGTACG : yes
TCATATAGGTAAACAGGTGTAAGTCCGTAAGTTA : yes
AGTCAAAGTTCAGGACGAGGTAACTTAAAGCACG : yes
CCTCGGAGGACAACAGGAGGTCAGAGATGCCAGA : yes
GCGACTGGGGCAAAGCTGGTTACCATAAGGTTGG : no
GCTGCTAGGTCAACTGATGGTCAGTTAAAGCTCG : yes
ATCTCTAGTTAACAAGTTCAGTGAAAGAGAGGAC : yes
CCTTACGTGTCAAGGTTATAGCACGGGTGGTACG : yes
TCTTGTAGATCAACGGTTAAGAAAGCCGAAGCCT : yes
CGAACTAGGTCAGAACAGGACAGTGTAGGATGAT : yes
TCGAGTAGCTTAGTCGGGGCATTCAGCCAACATA : no
TCTAGAAGGCCAGAGGGTCACTCAAGAGGTACGG : yes
CTCGAAAGGTCGTGCTCAGGTGAGTTTACCAAAC : yes
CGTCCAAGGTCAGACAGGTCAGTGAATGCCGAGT : yes
ATCTCTAGGTAAGACTAAGTTCAGTGAAGAACGC : yes
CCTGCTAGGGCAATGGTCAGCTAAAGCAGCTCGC : no
TCATATAGGTAAATGCTAGGTGAAATTCCGATCT : yes
CCACGGAGGACAGAAGGTCAGAGCTGTCCGCTTT : yes
GATACAGGGTCAAGGCCGGAGTACGCGTATTGAT : yes
CAAACTAGGTCAGCGGAAGGTCAAAGTCCGCATG : yes
TCTGATAGGTCAGTTGGTCAGCTAACGAGCTGCC : yes
TCTTGTAGAGCAAGCAGGTTAAGAAAGCCTGAGT : no
CTCGAAAGGTCGGTTGAGGTAAGTATACGGATAA : yes
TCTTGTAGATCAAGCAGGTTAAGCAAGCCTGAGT : yes
CCTACTGGGCCACGAAACGTCATTGATTCAGTGA : no
AGTCAAACTTCATCTAGGTAACGTAAGATATGCT : no
CGTCCAAGGTCAAGGTCATTGAAAGAGACTCGAA : yes
TATACAGGGTCAAAGGCCAGAGCACGAATGTCGA : yes
GCTAGCAGGCCATTTGGGTTACTCAATGACGGGC : no

----------
Test system: PPARg:RXRa 30nM:10nM, anti-RXR (NR concentration 30 nM, RXRa partner concentration 10 nM)
Assay: PBM binding z-score (relative to random genomic background probes); higher = stronger binding; sequences stand for … in GC…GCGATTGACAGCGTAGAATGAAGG
Rule: PBM binding z-score of 1 or more gives label 1; anything lower gives label 0.

ACTATTAGTTCAGACGAGGGCAACCGATAGGTTG : label 0
ATCGAAAGGTCGGGAGGTGAGTATACAGAAAGGC : label 0
TCTATTAGTTTATTAGGGCAACCGAAACAGCGGA : label 1
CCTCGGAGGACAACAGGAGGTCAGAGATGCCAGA : label 0
CCTGCTAGGTCAATGGTCAGCTGAAGCAGCTCGC : label 1
ACTAGCAGGCCCAGTTTGGGTCACTCAAACAAAG : label 0
CGAACTAGGTCCTCCAGGACAGTGAATACATTGA : label 0
ACAGACAGGAGAGTGAAGGTAACTCAGCTGGACG : label 0
ACTATTAGTTGAGACTAGGGCAACCGATAGGTTG : label 0
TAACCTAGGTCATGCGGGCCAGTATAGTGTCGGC : label 1
TCTTGTAGTTCAAGCAGGTTAAGAAAGCCTGAGT : label 1
TCATATAGGTAAACGTGAAAGTCGAACGATATGA : label 1
GCTGCTAGGTCAAGTGATGGTCAGCTAAAGCTCG : label 0
ACTAACGGGTCAACGAGGTTATAGCACGCGTATA : label 1
ATCGAAAGGTCGAAGGCGAGTATACCCACCCGAA : label 0
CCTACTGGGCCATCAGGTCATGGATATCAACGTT : label 1
CCAGACAGGTGAGAAGGTAACTAAGCCTCGATTA : label 0
TCGAGTAGGTTACCAATGGGGCATTCCGCTTTCT : label 1
CCTAGCAGGCCTATCTGGGTCACTCAAGGCTTGA : label 0
CGAACTAGGTCAGCCAGGACAGTGAATACATTGA : label 1
ATATGTAGGTAAGCTGGGGTCATTCAGACTAGGC : label 1
GCGGCTGGGGCAAAGCAGGTTACCATAAGGTTGG : label 0
AGTCAAAGTTCACTAGGTAATGTAAGATTCAGCT : label 1
GCAGACAGGTGAAACGCACGTAACTCAGGGTGGC : label 0
GCTAGCAGGCGATTTGGGTCACTCAATGACGGGC : label 0
CGACAAAGTTCAACTAAGGTAACGTAAAGCACGC : label 1
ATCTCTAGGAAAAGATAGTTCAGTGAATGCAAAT : label 0
ATCGATAGGTCGAAGGTGAGTATACCCACCCGAA : label 1
CCTCGGAGGACAACAGGAGGTCAGAGCAGCCAGA : label 0
GCTAGTTGGACAGTAAAAGGTCACACACCGGTCG : label 1
ATATCTAGGTAAGACTCAGTTCAGTGAAGAACGC : label 0
TCTTGTAGATCTAAGGTTAAGAAAGCCGAAGCCT : label 1
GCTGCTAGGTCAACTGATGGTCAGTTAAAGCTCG : label 0
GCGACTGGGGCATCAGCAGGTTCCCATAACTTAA : label 0
CGTCCAAGGTCAAAGATCAGTGAAGAGATGACGG : label 1
CAGCCTAGGTCAGGGCGAGTATAGGAGGAACGTT : label 0
TCTGCTAGGTTAACGATGGTCAGCTAATCTGCTA : label 1
ATCGAAAGCTCGAAGGTGAGTATACCCACCCGAA : label 0
CGAACGAGGACATGAGTTGATAGCAAATGCCGAT : label 0
GGCACGAGGGCATTCGAGTTGATAGCATGGCGAT : label 0
GCATATTGGTAATACAAGGTGAAAGTCCGATTGT : label 0
TCTAGCAGGGCAGAGGGTCACTCAAGAGGTACGG : label 1
CCTACTAGGCCACGAAAGGTCATTGATTCAGTGA : label 1
CCTACTGTGCCAAAGGTCATTGATTCCAATGCTC : label 1
CCTTAAGGGTCACTGACAGGTTATAGCATTTGGA : label 1
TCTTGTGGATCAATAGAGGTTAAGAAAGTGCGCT : label 1
TTACCAAGGAGAGCTGAGGTCGTTGATCCAACTC : label 0
GCAATTAGTTGAAAGGGCAACCGAATGATTCTCG : label 1
CGTCCAAGGTCAAGGTCAGTTAAAGAGACTCGAA : label 1
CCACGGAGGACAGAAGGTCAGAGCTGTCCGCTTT : label 0
